Target: Tubulin alpha chain (Sus scrofa)
Assay: Inhibitory activity against tubulin polymerization at 0.5 mM concentration
Type: functional
propertyName: inhibition (%)
Kindly provide the numeric value in % only, without the unit symbol.

// below: answered compounds
{"compound": "COc1c(Br)cc2cc1Oc1ccc(cc1)CC(O)COC(=O)CC2 (stereo unspecified)", "resultUnits": "%", "testValue": 21}
{"compound": "COc1ccc2cc1Oc1ccc(cc1)CC(O)COC(=O)CC2 (stereo unspecified)", "resultUnits": "%", "testValue": 47}
{"compound": "COc1cc2c(c(OC)c1OC)-c1ccc(OC)c(=O)cc1[C@@H](NC(C)=O)CC2", "resultUnits": "%", "testValue": 3}
{"compound": "COc1ccc2cc1Oc1ccc(cc1)C1OC1COC(=O)CC2 (stereo unspecified)", "resultUnits": "%", "testValue": 20}
{"compound": "COc1ccc2cc1Oc1ccc(cc1)/C=C\\COC(=O)CC2", "resultUnits": "%", "testValue": 19}

Note: attention shifts to another entry.
Q: Please list inhibition recorded for the compound COc1ccc2cc1Oc1ccc(cc1)CC(I)COC(=O)CC2 (stereo unspecified)
A: 28
